# Test system: Mycobacterium avium
# ASSAY_PROTOCOL: Antimycobacterial activity against Mycobacterium avium CNCTC My 330/88 after 14 days by micromethod
# Assay type: functional
# EXPERIMENTAL_PARAMETERS: CNCTC My 330/88, 336 h
// log10 of MIC lookup, one value per entry
Quick note: numbers are log10 of MIC, with µM as the unit.

Answered cases to consult:
1) O=[N+]([O-])c1cc(CSc2nnnn2C23CC4CC(CC(C4)C2)C3)cc([N+](=O)[O-])c1 :: 2.70
2) O=[N+]([O-])c1ccc(CSc2nnnn2-c2ccc([N+](=O)[O-])cc2)cc1 :: 2.40
3) O=[N+]([O-])c1cc(C[Se]c2nnnn2Cc2ccccc2)cc([N+](=O)[O-])c1 :: 1.51
4) O=[N+]([O-])c1cc(CSc2nnnn2-c2ccc(Cl)cc2)cc([N+](=O)[O-])c1 :: 2.10
5) c1ccc(C[Se]c2nnnn2-c2ccccc2)cc1 :: 1.79

QUERY: Read off the recorded log10 of MIC for Cn1nnnc1SCc1cc([N+](=O)[O-])cc([N+](=O)[O-])c1
RESULT: 2.70

QUERY: Read off the recorded log10 of MIC for O=[N+]([O-])c1cc(CSc2ccccc2)cc([N+](=O)[O-])c1
RESULT: 2.40

QUERY: Read off the recorded log10 of MIC for O=[N+]([O-])c1cc(C[Se]c2nnnn2C2CCCCC2)cc([N+](=O)[O-])c1
RESULT: 1.51

QUERY: Read off the recorded log10 of MIC for COc1ccc(-n2nnnc2SCc2cc(N)cc([N+](=O)[O-])c2)cc1
RESULT: 2.40

QUERY: Read off the recorded log10 of MIC for O=[N+]([O-])c1cc(CSc2cccc[n+]2[O-])cc([N+](=O)[O-])c1
RESULT: 2.70

QUERY: Read off the recorded log10 of MIC for O=[N+]([O-])c1cc(CSc2nnnn2-c2cccc(F)c2)cc([N+](=O)[O-])c1
RESULT: 2.40

QUERY: Read off the recorded log10 of MIC for COc1ccccc1-n1nnnc1SCc1cc([N+](=O)[O-])cc([N+](=O)[O-])c1
RESULT: 2.10

QUERY: Read off the recorded log10 of MIC for O=[N+]([O-])c1cc(COc2nnnn2-c2ccc(Cl)cc2)cc([N+](=O)[O-])c1
RESULT: 1.51

QUERY: Read off the recorded log10 of MIC for O=[N+]([O-])c1cc(C[Se]c2nnnn2-c2ccc(Br)cc2)cc([N+](=O)[O-])c1
RESULT: 2.10

QUERY: Read off the recorded log10 of MIC for CSCc1cc([N+](=O)[O-])cc([N+](=O)[O-])c1
RESULT: 2.40
